Tested on: glycogen synthase kinase-3 (GSK3A per assay name; protocol says GSK3B)
test.method.notes: GSK3 binders on small-molecule microarrays, primary screen, biochemical, small-molecule microarray, 635 nm fluorescence, GSK3A (AID 1103); note: the record names both GSK3A and GSK3B
settings: small-molecule microarray binding, fluorescence 635 nm; higher = more signal
For each of the compounds below, state its composite z-score.

Query: For CN1C(=O)C2C=CC(C(O)c3ccc(F)cc3)N(Nc3ccccc3)C2C1=O (centres undefined) , write its composite z-score.
Reply: -0.433

Items follow; give composite z-score for each.
1. COC(=O)[C@@]1(Cc2ccccc2)[C@H]2c3cc(C(=O)N(C)C)n(Cc4c(CO)[nH]cc(C)c4=O)c3C[C@H]2CN1C(=O)c1ccccc1
2. CC(C)N1C(=O)C[C@@](C(=O)NCCCN(C)C)(c2ccc([N+](=O)[O-])cc2)[C@H]1c1ccc(CO)cc1
3. C=CCN1C(=O)[C@@]2(CCS(=O)(=O)c3ccccc3)N=C(c3ccc(OCCCO)cc3)O[C@H]2c2ccccc21

Reply:
1. -0.0088
2. -0.777
3. 1.33

Items follow; give composite z-score for each.
1. NCCCCCNC(=O)[C@@H]1C[C@@H]2C(=O)NCC(=O)N2[C@@H]1c1cccc(OCCO)c1
2. CN(C)C(=O)[C@@]1(Cc2ccccc2CN=[N+]=[N-])N=C(c2ccc(OCCCO)cc2)O[C@H]1c1ccccc1CN=[N+]=[N-]
3. COC(=O)[C@@]1(Cc2ccccc2)[C@H]2c3cc(C(=O)N(C)C)n(CCN4CNCC4=O)c3C[C@H]2CN1C(=O)c1ccccc1
4. C=CCOC(=O)[C@H]1[C@@H]2C(=O)O[C@@H](c3ccccc3)[C@@H](c3ccccc3)N2[C@@H](c2ccc(OCCOC(=O)[C@@H]3C[C@@H]4C(=O)N[C@@H](CCCCN(C)C)C(=O)N4[C@@H]3c3ccc(O)cc3)cc2)[C@]12C(=O)Nc1ccccc12
5. CC(c1ccccc1)C(O)C1C=CC2C(=O)N(c3ccccc3)C(=O)C2N1Nc1ccc([N+](=O)[O-])cc1 (centres undefined)

Reply:
1.26
-0.581
-0.604
1.32
1.3

---

test.method.notes: RPMI8226 myeloma cell viability, profiling panel, resazurin fluorescence, basal, 24 h, PK04 Diversity Set (AID 1180);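 note: RPMI8826 multiple myeloma cell line at 5000 cells per well; test concentration not given here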
settings: higher = more signal
property: z-score
Answers are plain numbers.

Look over these answered cases.
Query: For COC(=O)C(CC#Cc1ccc2c(c1)[C@]1(C(=O)N2)[C@H](C(=O)N2CCN(c3ncccn3)CC2)[C@H]2C(=O)O[C@H](c3ccccc3)[C@H](c3ccccc3)N2[C@@H]1c1ccc(OCCO)cc1)C(=O)OC , write its z-score.
Reply: -0.126

Query: For CCOC(=O)C[C@H]1[C@H](OC(=O)c2cc3ccccc3oc2=O)[C@@H](NC(=O)Cc2ccc(OC)cc2)c2cc(OCCCO)ccc2N1C(=O)c1ccc2ccccc2n1 , write its z-score.
Reply: -0.0615

Query: For Cn1cccc1C(O)C1C=CC2C(=O)NC(=O)C2N1Nc1ccc(Cl)cc1Cl (centres undefined) , write its z-score.
Reply: -1.98

Query: For O=C(CS)NCCCCCCNC(=O)[C@H]1C[C@H]2C(=O)N[C@@H](Cc3ccccc3)C(=O)N2[C@H]1c1ccc(O)cc1 , write its z-score.
Reply: 0.158

Query: For [N-]=[N+]=NCc1ccccc1C[C@]1(C(N)=O)N=C(c2ccc(OCCCO)cc2)O[C@H]1c1ccccc1 , write its z-score.
Reply: -0.581

Items follow; give z-score for each.
1. COCCOC(=O)N1C(=O)[C@@]2(c3cc(C#CCNC(N)=O)ccc31)[C@H](C(=O)N1CCc3cc(OC)c(OC)cc3C1)[C@H]1C(=O)O[C@H](c3ccccc3)[C@H](c3ccccc3)N1[C@@H]2c1ccccc1OCCO
2. COCCOC(=O)N1C(=O)[C@@]2(c3cc(C#CCCO)ccc31)[C@H](C(=O)Nc1nc3ccccc3s1)[C@H]1C(=O)O[C@H](c3ccccc3)[C@H](c3ccccc3)N1[C@@H]2c1ccccc1OCCO
3. COCCOC(=O)N1C(=O)[C@@]2(c3cc(C#CCCO)ccc31)[C@H](c1ccccc1OCCO)N1[C@H](c3ccccc3)[C@H](c3ccccc3)OC(=O)[C@H]1[C@@H]2C(=O)Nc1nc2ccccc2s1
4. CC(C)OC(=O)C=C1C[C@@H](c2ccc(C(F)(F)F)cc2)O[C@@H](c2ccc(C(F)(F)F)cc2)O1
5. COc1ccc(CCNC(=O)[C@@H]2c3ccccc3C(=O)N(Cc3cc(C(F)(F)F)cc(C(F)(F)F)c3)[C@H]2c2ccc(CO)cc2)cc1
6. C=CCNC(=O)[C@H]1[C@@H]2C(=O)O[C@@H](c3ccccc3)[C@@H](c3ccccc3)N2[C@@H](c2ccc(O)cc2)[C@]12C(=O)N(C(=O)OCCOC)c1ccccc12
7. COc1ccc(C(O)C2C=CC3C(=O)N(c4ccccc4)C(=O)C3N2Nc2ccc([N+](=O)[O-])cc2)cc1 (centres undefined)

Reply:
[0.274, -1.28, -0.411, 0.0779, 0.451, 0.164, -0.502]

Items follow; give z-score for each.
1. C=C[C@@H](COC(C)=O)N(C(=O)OC(C)(C)C)S(=O)(=O)c1ccc(Br)cc1
2. CN1C(=O)C2C=CC(C(O)C#Cc3ccccc3)N(Nc3ccccc3)C2C1=O (centres undefined)
3. CC=CC(O)C1C=CC2C(=O)N(c3ccccc3)C(=O)C2N1Nc1ccccc1F (centres undefined)

Reply:
1. -0.288
2. -0.633
3. -0.788

Items follow; give z-score for each.
1. COCC1=C2[C@@H](CCc3ccccc3)OB(O)C[C@@H]2[C@@H]2C(=O)C=CC(=O)[C@@H]2C1
2. COC(=O)C1=CC(CCCO)=CC(C2CC2)N(C)C=C1C(=O)OC (centres undefined)
3. [N-]=[N+]=NCc1ccccc1[C@H]1OC(c2ccc(OCCCO)cc2)=N[C@@]1(CCS(=O)(=O)c1ccccc1)C(=O)NCC(O)CO (some centres undefined)
4. Cc1ccccc1C(O)C1C=CC2C(=O)N(C)C(=O)C2N1N(c1ccccc1)c1ccccc1 (centres undefined)
5. CC(=O)c1ccc(C(O)C2C=CC3C(=O)N(c4ccccc4)C(=O)C3N2Nc2ccc(C#N)cc2)cc1 (centres undefined)
6. CCOc1cc(C(O)C2C=CC3C(=O)N(c4ccccc4)C(=O)C3N2Nc2ccc(C#N)cc2)ccc1O (centres undefined)

Reply:
-0.878
-0.0242
0.0345
-0.0373
-1.84
-1.4

Items follow; give z-score for each.
1. CC(C)(C)N1CC=CC23O[C@@H]4C=CCCOC(=O)C4[C@H]2C(=O)N(CCO)[C@@H]3C1=O (some centres undefined)
2. COc1ccc(-c2cc3c(c(CCc4ccccc4)n2)[Si](C(C)C)(C(C)C)OC3)cn1
3. C=CCC(OC(C)=O)[C@@H]1[C@@H](N(Cc2cc3ccccc3o2)C(=O)Cc2ccc(F)cc2)c2cc(OCCCO)ccc2N1C(=O)c1ccc2ccccc2c1 (some centres undefined)
4. COC(=O)c1ccc([C@H](NC(=O)c2ccco2)[C@]2(C)C[C@H]2C2CCCCC2)cc1
5. CN(C)C(=O)C1N=C(c2ccc(OCCCO)cc2)N(c2ccccc2)O1 (centres undefined)
6. N#Cc1ccc(NN2C(C(O)c3ccc(F)cc3)C=CC3C(=O)N(c4ccccc4)C(=O)C32)cc1 (centres undefined)
7. CC(=O)NCCCC[C@@H]1NC(=O)[C@@H]2C[C@H](C(=O)NCCCC[N+](C)(C)C)[C@H](c3ccc(O)cc3)N2C1=O
8. COC(=O)C(CC#Cc1ccc2c(c1)[C@]1(C(=O)N2)[C@H](c2ccccc2OCCO)N2[C@H](c3ccccc3)[C@H](c3ccccc3)OC(=O)[C@H]2[C@@H]1C(=O)NC[C@H](O)c1ccccc1)C(=O)OC

Reply:
1: -1.13; 2: 1.18; 3: 0.304; 4: -2.26; 5: 0.271; 6: -0.67; 7: -1.2; 8: -6.97

---

test.method.notes: small-molecule binders of probe aLefty1, primary screen, biochemical, small-molecule microarray, 635/667 nm fluorescence (AID 1153);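 note: score merges spot fluorescence with signal-to-noise ratio from the scanned slide images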
settings: higher = more signal
For each of the compounds below, state its composite z-score.
Numbers only.

Look over these answered cases.
Query: For COC(=O)[C@@]1(Cc2ccccc2)[C@H]2c3cc(C(=O)N(C)C)n(Cc4c(CO)[nH]cc(C)c4=O)c3C[C@H]2CN1C(=O)c1ccccc1 , write its composite z-score.
Reply: 0.0004

Query: For C=CC[C@]1(C(=O)O)COC(c2ccc(OCCCO)cc2)=N1 , write its composite z-score.
Reply: 0.0437

// next item, composite z-score requested
Query: For C=CCOC(=O)[C@H]1[C@@H]2C(=O)O[C@@H](c3ccccc3)[C@@H](c3ccccc3)N2[C@@H](c2ccc(OCCOC(=O)[C@@H]3C[C@@H]4C(=O)N[C@@H](CCCCN(C)C)C(=O)N4[C@@H]3c3ccc(O)cc3)cc2)[C@]12C(=O)Nc1ccccc12 , write its composite z-score.
Reply: -0.0873
